All figures here come from ChEMBL document CHEMBL1124822.

- Tested on: Serotonin 2 (5-HT2) receptor (Rattus norvegicus) (UniProt P30994+P08909+P14842)
- Sequence (P08909 whole entry, looked up): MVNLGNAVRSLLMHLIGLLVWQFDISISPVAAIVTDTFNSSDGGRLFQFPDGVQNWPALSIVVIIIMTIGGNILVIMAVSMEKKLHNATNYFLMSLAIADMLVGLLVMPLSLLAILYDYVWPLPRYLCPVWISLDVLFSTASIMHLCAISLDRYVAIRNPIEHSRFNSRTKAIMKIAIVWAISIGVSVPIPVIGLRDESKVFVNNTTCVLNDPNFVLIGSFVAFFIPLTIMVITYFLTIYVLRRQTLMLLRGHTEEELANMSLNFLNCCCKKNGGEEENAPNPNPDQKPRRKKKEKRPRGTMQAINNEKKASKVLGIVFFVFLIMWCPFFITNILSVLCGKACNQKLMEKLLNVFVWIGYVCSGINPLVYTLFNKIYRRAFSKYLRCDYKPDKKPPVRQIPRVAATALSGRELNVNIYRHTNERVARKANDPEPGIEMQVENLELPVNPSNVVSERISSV
- Sequence (P14842 whole entry, looked up): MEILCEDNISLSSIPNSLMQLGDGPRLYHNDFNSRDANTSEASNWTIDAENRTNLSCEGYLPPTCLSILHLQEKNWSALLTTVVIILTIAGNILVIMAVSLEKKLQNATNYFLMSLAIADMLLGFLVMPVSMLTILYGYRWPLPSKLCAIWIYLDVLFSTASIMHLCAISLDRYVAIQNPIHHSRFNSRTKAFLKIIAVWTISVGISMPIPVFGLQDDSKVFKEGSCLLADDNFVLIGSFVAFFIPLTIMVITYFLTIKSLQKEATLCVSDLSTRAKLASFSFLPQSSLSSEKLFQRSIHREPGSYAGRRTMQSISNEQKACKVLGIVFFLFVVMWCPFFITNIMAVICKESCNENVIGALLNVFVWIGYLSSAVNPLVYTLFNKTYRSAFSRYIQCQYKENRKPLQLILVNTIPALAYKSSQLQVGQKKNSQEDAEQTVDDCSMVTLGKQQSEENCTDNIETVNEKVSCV
- Sequence (P30994 whole entry, looked up): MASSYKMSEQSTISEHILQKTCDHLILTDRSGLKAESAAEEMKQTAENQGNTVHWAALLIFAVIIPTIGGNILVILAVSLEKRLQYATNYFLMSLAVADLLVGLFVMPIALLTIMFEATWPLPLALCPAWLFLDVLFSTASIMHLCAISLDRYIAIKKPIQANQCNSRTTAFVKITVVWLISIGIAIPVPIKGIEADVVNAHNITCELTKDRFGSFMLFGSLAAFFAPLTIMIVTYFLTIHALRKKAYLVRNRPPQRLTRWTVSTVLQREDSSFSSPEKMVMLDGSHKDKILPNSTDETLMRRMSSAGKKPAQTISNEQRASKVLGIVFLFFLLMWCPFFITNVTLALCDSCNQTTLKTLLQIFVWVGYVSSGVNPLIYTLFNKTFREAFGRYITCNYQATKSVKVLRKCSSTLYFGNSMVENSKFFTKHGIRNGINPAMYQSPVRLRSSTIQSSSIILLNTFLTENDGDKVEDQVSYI
- Assay overview: Antagonistic activity against (5-hydroxytryptamine 2 receptor) serotonin-induced contractions in the rat jugular vein
- Format: functional
Entries whose -Log KB is below 9 take TRUE; entries at or above 9 take FALSE.

In [3]: df
Out[3]:
                                   molecule  category
0  CCC(CC)n1cc2c3c(cccc31)[C@H]1C[C@@H](C(=O)NC3CCCC3)CN(C)[C@@H]1C2      TRUE
1  CCC(CC)n1cc2c3c(cccc31)[C@H]1C[C@@H](C(=O)NC3CCCCC3)CN(C)[C@@H]1C2      TRUE
2  C=CCn1cc2c3c(cccc31)[C@H]1C[C@@H](C(=O)NC3CCCCC3)CN(C)[C@@H]1C2      TRUE
3  CN1C[C@H](C(=O)NC2CCCCC2)C[C@@H]2c3cccc4c3c(cn4C3CCCC3)C[C@H]21      TRUE
4  CCn1cc2c3c(cccc31)[C@H]1C[C@@H](NC(=O)C3CCC(OC)CC3)CN(C)[C@@H]1C2 (stereo partly drawn)     FALSE
5  COC1CCC(C(=O)N[C@@H]2C[C@@H]3c4cccc5c4c(cn5C(C)C)C[C@H]3N(C)C2)CC1 (stereo partly drawn)     FALSE
6  CC(C)n1cc2c3c(cccc31)[C@H]1C[C@@H](c3nnnn3C3CCCCC3)CN(C)[C@@H]1C2      TRUE
